system: NCI/ADR-RES ovarian; experiment: NCI-60 one-dose screen, 48 h (100 = growth as untreated, 0 = no growth, -100 = all killed); conditions: 10 µM unless noted
The panel holds about 83,000 compounds, 20% with a hit somewhere; the sample as a whole holds those more often.
Each entry below carries its recorded growth.
Report the figure in % without appending any unit label.

Example results:
* Nc1cccc(-c2nc3sccn3c2-c2ccnc(NCCNS(=O)(=O)c3ccc(C(F)(F)F)cc3)n2)c1 | 71.5
* O=C(Nc1ccncc1)C(=O)c1cn(S(=O)(=O)c2ccccc2F)c2ccccc12 | -17.7
* CCO/C=N/C1=C(C#N)C(c2ccc(Cl)cc2)c2c(c3ccc(C)cc3[nH]c2=O)O1 (stereo not given) | 96.1
* COC(=O)C(Sc1ccc(Cl)cc1)C1SC(=S)N(Cc2ccccc2)C1=O (stereo not given) | 102

(Q) Provide value of growth for this record tested with NCI/ADR-RES ovarian: CSc1nc2c(c(=O)[nH]1)C(c1ccc(C)cc1)C=C(C(=O)O)N2 (stereo not given)
(A) 109

---

system: A549/ATCC NSCLC; assay: NCI-60 one-dose screen, 48 h; settings: 10 µM unless noted
About 83,000 compounds went through this panel and 20% of them were active in at least one assay; those are over-represented in the sample as a whole. Calls of active or inactive are those of the source. Rule for the calls: active = growth percent below 10; inactive = the rest.
Classes to choose from: active, inactive

- CC1(C)C(=O)/C(=C\c2ccc(C(F)(F)F)cc2)C[C@]2(C)[C@H]3CC[C@@H]4[C@H]5[C@H](C(=O)/C=C/c6ccc(C(F)(F)F)cc6)CC[C@]5(CO)CC[C@@]4(C)[C@]3(C)CC[C@@H]12: inactive

(Q) Please indicate how the test categorized COc1ccc(N=Cc2c(O)ccc3c2oc2cc(Cl)c(O)c(Cl)c23)cc1 .
(A) inactive

(Q) Please indicate how the test categorized O=C(c1ccccc1)c1c(/C=C/c2ccccc2)c2ccccc2[nH]c1=O .
(A) inactive

(Q) Please indicate how the test categorized Cc1cc(N/N=C/c2nc(-c3ccccc3)oc2C)c2cc(Br)ccc2n1 .
(A) inactive

(Q) Please indicate how the test categorized C=C[C@@H]1C[C@H](O)Cc2c(C)cc(C)cc2N1 .
(A) inactive

---

test system: MOLT-4 leukemia; experiment: NCI-60 one-dose screen, 48 h (100 = growth as untreated, 0 = no growth, -100 = all killed); conditions: 10 µM unless noted
The panel holds about 83,000 compounds, 20% with a hit somewhere; the sample as a whole holds those more often.
Property Label: growth (%)
Report the figure in % without appending any unit label.

* Clc1cc(Cl)cc(-c2ccc(-c3ccc(/C=N/NC4=NCCN4)cc3)s2)c1 | 14.7
* COc1ccc(-c2cc3c(OC)c(OC)c(OC)cc3oc2=O)cc1 | 64.7
* O=C(Nc1ccc(Cl)c(Cl)c1)NS(=O)(=O)c1cnccc1Oc1ccc(F)cc1 | 52.3
* C=C1C(=O)O[C@@H]2[C@@H]3O[C@@](C)(CC/C=C(\C)CCC[C@@H]2C)[C@H](O)C[C@@H]13 | 16.8

Next up:
(Q) Sample CN(C)CCCN(c1nc(C(Cl)(Cl)Cl)ns1)c1nc(C(Cl)(Cl)Cl)ns1 — what was its growth?
(A) 3.33

---

system: SK-MEL-2 melanoma; experiment: NCI-60 one-dose screen, 48 h; details: 10 µM unless noted
About 83,000 compounds went through this panel and 20% of them were active in at least one assay; those are over-represented in the sample as a whole. Active and inactive are the calls of the source. How the source made its calls: active means growth percent below 10; inactive means the rest.
Classes to choose from: active, inactive

* COc1ccc2[nH]c(C(=O)OCc3ccc4c(Cl)cc(Cl)c(O)c4n3)cc2c1 | active
* O=C(NCCCNc1nccc(-n2ccc3cccnc32)n1)c1c(F)cccc1F | inactive
* O=C(c1c[nH]c(=O)c(-c2ccccc2)c1)c1ccccc1O | inactive
* CCCCOc1ccc(/C=C2/SC(N3CCCC3)=NC2=O)cc1 | inactive
* CC(C)(C)n1cc(-c2ccnc(NCCCNS(=O)(=O)c3ccc(Cl)cc3)c2)c(-c2cccc(O)c2)n1 | active

Switching to the query record.
(Q) Please indicate how the test categorized O=[N+]([O-])c1ccc(Sc2ncccn2)c([N+](=O)[O-])c1 .
(A) inactive

---

tested on: SNB-19 CNS; assay: NCI-60 one-dose screen, 48 h (100 = growth as untreated, 0 = no growth, -100 = all killed); settings: 10 µM unless noted
Compounds without any hit were thinned out: in the full panel of roughly 83,000, 20% have a hit. Calls of active or inactive are those of the source. How the source made its calls: active means growth percent below 10; inactive means the rest.
Each entry below carries its recorded growth.

Example results:
* CC(=O)Nc1nc(N)nc(NC(C)=O)c1N=O | 111% (inactive)
* NC(=S)N/N=C1\CCCC(C(F)(F)F)C1 (stereo unspecified) | 100% (inactive)
* Cc1cc(N/N=C/c2nc(-c3ccc(Br)cc3)oc2C)c2cc(Cl)ccc2n1 | 60.1% (inactive)
* Cc1ccc(-c2cc3nc(C(Cl)Cl)nc(-c4cccnc4)n3n2)cc1 | 23.4% (inactive)
* COc1ccc(Nc2ncccc2C(=O)NCc2cn(Cc3cccc(Oc4ccccc4)c3)nn2)c(OC)c1 | 44.5% (inactive)
* O=C(CSC1CCc2ccccc21)N/N=C/c1ccccc1O (stereo unspecified) | 60.5% (inactive)
* C=C[C@@H]1C[C@H](O)Cc2c(C)cc(C)cc2N1 | 109% (inactive)
* COc1ccc(-n2c(-c3ccccc3)c(-c3ccccc3)c3c(SCC(=O)N/N=C/c4ccc(Cl)cc4)ncnc32)cc1 | 100% (inactive)
* OCc1ncc(-c2ccccc2)s1 | 98.5% (inactive)
* CC(=O)c1cc2c(N)c(C(=O)Nc3cccc4c3OCCO4)sc2nc1C | 93.2% (inactive)

(Q) Sample COc1ccc(-c2ccc(-c3ccc(C(=N)N)cn3)s2)cc1OC — what was its growth?
(A) 94.7% (inactive)

(Q) Sample O=C(O)COc1ccc(-c2cssc2=S)cc1 — what was its growth?
(A) 105% (inactive)

(Q) Sample CCN(CC)CCC(CNc1ccnc2cc(Cl)ccc12)c1ccccc1 (stereo unspecified) — what was its growth?
(A) 92.5% (inactive)

---

tested on: BT-549 breast; assay: NCI-60 one-dose screen, 48 h (100 = growth as untreated, 0 = no growth, -100 = all killed); settings: 10 µM unless noted
This is part of a sample that, as a whole, favours compounds with a hit. Of some 83,000 tested, about 20% had one in any assay.
Lab note - cut at 70% for growth: class 1 if strictly below, class 0 if not.

# example entries with known answers
• COc1ccc(C(=O)N2NC(=O)/C(=C/c3ccc(F)cc3)N=C2c2ccccc2)cc1 = class 0
• CCCN=C1NC(=O)/C(=C/c2nc(-c3ccc(OC)cc3)n3ccccc23)S1 = class 0

(Q) Would you kindly verify if growth of O=c1cc(Cc2ccc([N+](=O)[O-])cc2)[nH]c(=O)[nH]1 is strictly less than 70%?
(A) class 0

(Q) Would you kindly verify if growth of CCN(CC)c1ccc(C(=N)c2ccc(N(CC)CC)cc2)cc1 is strictly less than 70%?
(A) class 1

(Q) Would you kindly verify if growth of COc1c2occc2c(OC)c2c(=O)c(-c3cc(-c4ccc(F)cc4)c(C#N)c(N)n3)c(C)oc12 is strictly less than 70%?
(A) class 1

(Q) Would you kindly verify if growth of CCCCNC(=O)Oc1ccc(/C(=C(\C)c2ccccc2)c2ccc(OCCN(CC)CC)cc2)cc1 is strictly less than 70%?
(A) class 0

---

system: SN12C renal; assay: NCI-60 one-dose screen, 48 h (100 = growth as untreated, 0 = no growth, -100 = all killed); details: 10 µM unless noted
The panel holds about 83,000 compounds, 20% with a hit somewhere; the sample as a whole holds those more often.
Each entry below carries its recorded growth.
Report the figure in % without appending any unit label.

(Q) Sample CC1=C(C#N)C(=O)NC(C)C1 (centres undefined) — what was its growth?
(A) 99.9

(Q) Sample O=S(=O)(NCCNc1nccc(-c2c(-c3ccc(F)cc3)nc3sccn23)n1)c1ccc(F)cc1 — what was its growth?
(A) 73

(Q) Sample COc1cc(/C=C/C(=O)c2ccc(Nc3ncnc4cc(OC)c(OC)cc34)cc2)cc(OC)c1 — what was its growth?
(A) 91.1

(Q) Sample CCCCCCCC/C=C/CCCCCCCC1=NC(C)(C)CN1C(C)(C)CO — what was its growth?
(A) 48.7

(Q) Sample Cc1ccc2nc(-c3cc4c([nH]c5ccccc54)c(-c4ccc(F)c(F)c4)n3)[nH]c2c1 — what was its growth?
(A) 81.8

(Q) Sample NC(N)=N/N=C/c1ccc(-c2ccc(-c3cc(Cl)cc(Cl)c3)s2)cc1 — what was its growth?
(A) -53.8

(Q) Sample COc1ccc(Nc2nn3c(-c4ccccc4)cc(-c4ccccc4)nc3c2C(N)=O)c(OC)c1 — what was its growth?
(A) 46.4

(Q) Sample COc1ccc(CNCCCN2C(=O)c3ccc4c5c(ccc(c35)C2=O)C(=O)N(CCCNCCCCNCCCN)C4=O)c(OC)c1OC — what was its growth?
(A) -54.6

(Q) Sample Cc1ccc(S(=O)(=O)n2cc(C(=O)C(=O)Nc3ccncc3)c3ccccc32)cc1 — what was its growth?
(A) 39.8

(Q) Sample O=[N+]([O-])c1ccc(-c2cn(-c3ccccc3)c(-c3ccccc3)n2)cc1 — what was its growth?
(A) 77.6

(Q) Sample Clc1cc2c(nn1)Nc1ccccc1S2 — what was its growth?
(A) 97.1

(Q) Sample Cc1nc2c3c(ncn2n1)Oc1c(c(=O)[nH]c2ccccc12)C3c1ccc(Cl)cc1 (centres undefined) — what was its growth?
(A) 97

(Q) Sample N=C(N)c1ccc(-c2cc(Cl)cc(Cl)c2)cn1 — what was its growth?
(A) 91.6
